tested on: 885724-159-R-J1-PDC KRAS PDC multicell spheroid viability; assay: Anticancer human tumor 885724-159-R-J1-PDC patient-derived pancreatic adenocarcinoma cell line growth inhibition [KRAS2]; conditions: second compound 10 µM; first compound 0.0316 µM; active compounds read low;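 further: spheroids exposed to agents for 7 days before readout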
Measured viability, T/C values are reported for all entries that follow.

| COMPOUND | viability, T/C / % |
| --- | --- |
| CCN1CCN(Cc2ccc(Nc3ncc(F)c(-c4cc(F)c5nc(C)n(C(C)C)c5c4)n3)nc2)CC1 + CNCc1ccccc1-c1csc(C(C)Nc2nc(C)nc3cc(OC)c(OC)cc23)c1 | 0.2 |
| CC(C)n1nc(-c2ccc3oc(N)nc3c2)c2c(N)ncnc21 + CC1OCC2(CCN(c3cnc(Sc4ccnc(N)c4Cl)c(N)n3)CC2)C1N | 44.1 |
| CC(C)n1nc(-c2ccc3oc(N)nc3c2)c2c(N)ncnc21 + COc1cc2nc(C)nc(NC(C)c3cc(N)cc(C(F)(F)F)c3)c2cc1OC1CCOC1 | 31.4 |
